Hey, just so you know, these numbers are from paper PMC10096376.

Can you tell me 1-h% Mean Knockdown ± SEM, Synergist Alone for the items I'm about to list?
- Tested on: Musca domestica
- protocolText: Co-toxicity assay with permethrin (topical)
- Assay type: in vivo
- runParameters: 10.2 μg PBO, 70 μg carvone, 190 μg menthone, 80 μg fenchone per fly
Just the number please, in %, no unit attached.

Value wanted: 1-h% Mean Knockdown ± SEM, Synergist Alone (Musca domestica) of entry C=C(C)[C@@H]1CC=C(C)C(=O)C1 [Carvone, L-carvone]
16

Item CCCCOCCOCCOCc1cc2c(cc1CCC)OCO2 [PBO, piperonyl butoxide, reference compound] with Musca domestica - 1-h% Mean Knockdown ± SEM, Synergist Alone?
2

Test system Musca domestica; read-out 1-h% Mean Knockdown ± SEM, Synergist Alone; what value for CC(C)[C@@H]1CC[C@@H](C)CC1=O [Menthone, L-menthone] ?
4

Report 1-h% Mean Knockdown ± SEM, Synergist Alone for CC12CCC(C1)C(C)(C)C2=O [Fenchone, L-fenchone] tested on Musca domestica.
0
